Where these numbers come from: patent US20240239894A1

- Target of assay: T1, Murine B7-H4-Fc (Mouse B7H4 ECD, Fc_6His) (mouse, UniProt Q7TSP5 25-257)
- T1 construct: extracellular domain; also called mouse B7-H4-Fc; FcHis6 tagged murine B7-H4
- T1 sequence (Q7TSP5 whole entry, looked up): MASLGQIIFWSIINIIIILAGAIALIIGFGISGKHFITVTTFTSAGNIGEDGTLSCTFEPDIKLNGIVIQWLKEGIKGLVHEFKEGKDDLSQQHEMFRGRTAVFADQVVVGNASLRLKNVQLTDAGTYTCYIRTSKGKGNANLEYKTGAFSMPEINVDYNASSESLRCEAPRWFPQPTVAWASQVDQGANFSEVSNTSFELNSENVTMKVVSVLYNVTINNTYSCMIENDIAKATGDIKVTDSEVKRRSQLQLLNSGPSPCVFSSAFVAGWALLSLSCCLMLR
- Experiment notes: HTRF binding, murine IgG1
Rule: EC50 below 2 nM gives T. Equal to or above 2 nM gives F.

Does this binder meet the criterion EC50 < 2 nM? ZY0EO5-E07 murine IgG1 (antibody, V domains shown, also called ZY0E05-E07; E05-E07) VH: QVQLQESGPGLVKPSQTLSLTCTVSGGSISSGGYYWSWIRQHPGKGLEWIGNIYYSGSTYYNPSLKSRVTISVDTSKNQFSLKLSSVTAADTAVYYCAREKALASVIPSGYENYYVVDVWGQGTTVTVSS VL: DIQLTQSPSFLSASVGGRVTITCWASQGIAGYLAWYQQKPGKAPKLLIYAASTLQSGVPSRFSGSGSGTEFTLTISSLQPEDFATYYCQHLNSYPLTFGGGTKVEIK T

One more binder: ZY0EQD-E02 murine IgG1 (antibody, V domains shown) VH: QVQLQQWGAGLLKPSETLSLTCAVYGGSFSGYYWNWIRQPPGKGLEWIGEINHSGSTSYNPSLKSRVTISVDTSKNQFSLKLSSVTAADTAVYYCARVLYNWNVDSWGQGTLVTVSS VL: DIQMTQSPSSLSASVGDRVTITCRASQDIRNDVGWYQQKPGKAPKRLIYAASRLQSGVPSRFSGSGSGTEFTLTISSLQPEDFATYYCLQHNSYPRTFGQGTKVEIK F

One more binder: ZY0EP0-C07 murine IgG1 (antibody, V domains shown, also called ZY0EPO-C07) VH: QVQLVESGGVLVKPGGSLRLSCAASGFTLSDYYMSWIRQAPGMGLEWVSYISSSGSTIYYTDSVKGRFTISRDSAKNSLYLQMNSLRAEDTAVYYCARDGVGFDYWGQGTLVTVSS VL: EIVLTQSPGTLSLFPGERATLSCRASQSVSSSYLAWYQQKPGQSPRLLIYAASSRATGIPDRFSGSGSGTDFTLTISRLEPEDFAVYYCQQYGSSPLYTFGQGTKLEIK T

One more binder: ZY0EOB-F05 murine IgG1 (antibody, V domains shown) VH: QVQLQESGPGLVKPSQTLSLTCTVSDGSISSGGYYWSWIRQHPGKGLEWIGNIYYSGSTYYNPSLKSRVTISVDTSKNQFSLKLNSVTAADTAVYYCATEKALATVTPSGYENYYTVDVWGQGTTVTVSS VL: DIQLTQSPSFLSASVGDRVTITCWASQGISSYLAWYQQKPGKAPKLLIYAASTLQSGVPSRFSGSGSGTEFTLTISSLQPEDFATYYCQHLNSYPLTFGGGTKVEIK T
